Could you please report measured self-splicing fitness (ln) for the items listed next?
Test: self-splicing fitness, log relative to wild type (ln ratio); higher = more splicing; Tetrahymena group I intron in knt gene, E. coli kanamycin selection, DiMSum; sequences stand for … in CUCUCU…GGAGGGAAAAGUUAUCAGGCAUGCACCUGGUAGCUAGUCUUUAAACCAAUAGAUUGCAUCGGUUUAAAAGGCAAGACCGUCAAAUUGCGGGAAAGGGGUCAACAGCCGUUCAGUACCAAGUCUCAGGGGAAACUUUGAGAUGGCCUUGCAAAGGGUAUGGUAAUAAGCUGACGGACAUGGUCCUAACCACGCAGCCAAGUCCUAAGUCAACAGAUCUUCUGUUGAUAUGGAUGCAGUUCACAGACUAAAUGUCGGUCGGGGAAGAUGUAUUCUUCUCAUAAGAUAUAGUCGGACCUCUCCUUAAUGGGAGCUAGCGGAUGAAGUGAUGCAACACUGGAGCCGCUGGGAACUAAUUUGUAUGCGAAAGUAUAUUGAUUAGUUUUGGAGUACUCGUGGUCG;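 further: selection with 25 µg/mL kanamycin versus none on LB agar overnight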
Settings: 37 °C
One number for each entry.

# CHAIN SEQUENCE, self-splicing fitness (ln)
measured = [
    ("CCGCAGCAAUAUUACGGAUG", -1.54),
    ("UUAAAGCAAUAUUACGCUUA", -0.561),
    ("UGUAAGCAAUAUUACGGUAU", -1.68),
    ("CAACAGCAAUAUUACGGUCA", -0.339),
]

Batch request: self-splicing fitness (ln) for each of the following sequences.
1. UCCGAGCAAUAUUACGAAAG
2. CUCGAGCAAUAUUACGUGAC

Solution:
1: -2.65; 2: -1.73

Batch request: self-splicing fitness (ln) for each of the following sequences.
1. AGCUAGCAAUAUUACGCCUU
2. UGACAGCAAUAUUACGUAGU
3. AAUUAGCAAUAUUACGGGGU
4. CCCAAGCAAUAUUACGCCGC
5. CGGUAGCAAUAUUACGGCCG

Solution:
[-0.609, -1.22, -2.02, -1.07, -0.985]

Origin of values: the supplement of paper PMC7877785
